I'd appreciate it if you could supply IC50 values for the items below.
Molecular target: recombinant human NaV1.8 stably transfected HEK cells (Homo sapiens)
Construct: expressed in transfected cells; host or cells: HEK cells, stably transfected
Assay: Compound profiling on NaV1.8, human NaV1.8 cell line, SyncroPatch384PE automated patch clamp assay (Example 102, first set of compounds, Table 16)
Assay type: cell-based
Conditions: inactivated state block (P2 measurement), human NaV1.8 HEK cells, Table 16 (first set of compounds), read-out: P2IC50

// below: answered compounds
INSERT INTO assay_data (compound, assay_value) VALUES
  ('COc1cc(C#N)ccc1Oc1nnc(C(F)(F)F)c(C)c1C(=O)Nc1cccc(C(=O)NCCO)c1 [Compound 1441]', '200 to 500 nM'),
  ('COc1c(Oc2nccc(C(F)(F)F)c2C(=O)Nc2cccc(S(C)(=N)=O)c2)ccc(F)c1F (centres unmarked) [Compound 1651]', '≤ 20 nM'),
  ('CSc1cccc(NC(=O)c2cc(Br)cnc2Oc2ccc(F)cc2C)c1 [Compound 1577]', '200 to 500 nM'),
  ('Cc1cc(F)ccc1Oc1nncc(C)c1C(=O)Nc1cccc(S(C)(=N)=O)c1 (centres unmarked) [Compound 1553]', '200 to 500 nM'),
  ('COc1cc(Oc2ncc(C(F)(F)F)cc2C(=O)Nc2cccc(S(C)(=N)=O)c2)ccc1C#N (centres unmarked) [Compound 1645]', '200 to 500 nM');

Working through the 6 compounds below one at a time, give IC50 for each.
1. NC(=O)c1ccc(NC(=O)c2cc(C(F)(F)F)cnc2OC2CC3C(C2)C3(F)F)cc1 (centres unmarked) [Compound 1673]
2. COc1c(Oc2nnc3c(c2C(=O)Nc2cccc(C(N)=O)c2)CCC3)ccc(F)c1F [Compound 1417]
3. Cc1cccc(Cl)c1Oc1nnc(C(F)(F)F)c(C)c1C(=O)Nc1ccc(C(N)=O)cc1 [Compound 1401]
4. COc1nc(C#N)ccc1Oc1ncc(C(F)(F)F)cc1C(=O)Nc1cccc([S@](C)(=N)=O)c1 [Compound 1655]
5. COc1cc(Cl)ccc1Oc1nnc(C(F)(F)F)c(C)c1C(=O)Nc1cccc(S(C)(=N)=O)c1 (single isomer, unassigned) [Compound 1481]
6. COc1c(Oc2nnc(C(F)(F)F)c(C)c2C(=O)Nc2ccc[n+]([O-])c2)ccc(F)c1F [Compound 1476]

// result
["200 to 500 nM", "200 to 500 nM", "200 to 500 nM", "≤ 20 nM", "≤ 20 nM", "≤ 20 nM"]

----------
Target: recombinant human NaV1.8 stably transfected HEK cells (Homo sapiens, UniProt Q9Y5Y9)
Construct: expressed in transfected cells; host or cells: HEK cells, stably transfected
Sequence (Q9Y5Y9 whole entry): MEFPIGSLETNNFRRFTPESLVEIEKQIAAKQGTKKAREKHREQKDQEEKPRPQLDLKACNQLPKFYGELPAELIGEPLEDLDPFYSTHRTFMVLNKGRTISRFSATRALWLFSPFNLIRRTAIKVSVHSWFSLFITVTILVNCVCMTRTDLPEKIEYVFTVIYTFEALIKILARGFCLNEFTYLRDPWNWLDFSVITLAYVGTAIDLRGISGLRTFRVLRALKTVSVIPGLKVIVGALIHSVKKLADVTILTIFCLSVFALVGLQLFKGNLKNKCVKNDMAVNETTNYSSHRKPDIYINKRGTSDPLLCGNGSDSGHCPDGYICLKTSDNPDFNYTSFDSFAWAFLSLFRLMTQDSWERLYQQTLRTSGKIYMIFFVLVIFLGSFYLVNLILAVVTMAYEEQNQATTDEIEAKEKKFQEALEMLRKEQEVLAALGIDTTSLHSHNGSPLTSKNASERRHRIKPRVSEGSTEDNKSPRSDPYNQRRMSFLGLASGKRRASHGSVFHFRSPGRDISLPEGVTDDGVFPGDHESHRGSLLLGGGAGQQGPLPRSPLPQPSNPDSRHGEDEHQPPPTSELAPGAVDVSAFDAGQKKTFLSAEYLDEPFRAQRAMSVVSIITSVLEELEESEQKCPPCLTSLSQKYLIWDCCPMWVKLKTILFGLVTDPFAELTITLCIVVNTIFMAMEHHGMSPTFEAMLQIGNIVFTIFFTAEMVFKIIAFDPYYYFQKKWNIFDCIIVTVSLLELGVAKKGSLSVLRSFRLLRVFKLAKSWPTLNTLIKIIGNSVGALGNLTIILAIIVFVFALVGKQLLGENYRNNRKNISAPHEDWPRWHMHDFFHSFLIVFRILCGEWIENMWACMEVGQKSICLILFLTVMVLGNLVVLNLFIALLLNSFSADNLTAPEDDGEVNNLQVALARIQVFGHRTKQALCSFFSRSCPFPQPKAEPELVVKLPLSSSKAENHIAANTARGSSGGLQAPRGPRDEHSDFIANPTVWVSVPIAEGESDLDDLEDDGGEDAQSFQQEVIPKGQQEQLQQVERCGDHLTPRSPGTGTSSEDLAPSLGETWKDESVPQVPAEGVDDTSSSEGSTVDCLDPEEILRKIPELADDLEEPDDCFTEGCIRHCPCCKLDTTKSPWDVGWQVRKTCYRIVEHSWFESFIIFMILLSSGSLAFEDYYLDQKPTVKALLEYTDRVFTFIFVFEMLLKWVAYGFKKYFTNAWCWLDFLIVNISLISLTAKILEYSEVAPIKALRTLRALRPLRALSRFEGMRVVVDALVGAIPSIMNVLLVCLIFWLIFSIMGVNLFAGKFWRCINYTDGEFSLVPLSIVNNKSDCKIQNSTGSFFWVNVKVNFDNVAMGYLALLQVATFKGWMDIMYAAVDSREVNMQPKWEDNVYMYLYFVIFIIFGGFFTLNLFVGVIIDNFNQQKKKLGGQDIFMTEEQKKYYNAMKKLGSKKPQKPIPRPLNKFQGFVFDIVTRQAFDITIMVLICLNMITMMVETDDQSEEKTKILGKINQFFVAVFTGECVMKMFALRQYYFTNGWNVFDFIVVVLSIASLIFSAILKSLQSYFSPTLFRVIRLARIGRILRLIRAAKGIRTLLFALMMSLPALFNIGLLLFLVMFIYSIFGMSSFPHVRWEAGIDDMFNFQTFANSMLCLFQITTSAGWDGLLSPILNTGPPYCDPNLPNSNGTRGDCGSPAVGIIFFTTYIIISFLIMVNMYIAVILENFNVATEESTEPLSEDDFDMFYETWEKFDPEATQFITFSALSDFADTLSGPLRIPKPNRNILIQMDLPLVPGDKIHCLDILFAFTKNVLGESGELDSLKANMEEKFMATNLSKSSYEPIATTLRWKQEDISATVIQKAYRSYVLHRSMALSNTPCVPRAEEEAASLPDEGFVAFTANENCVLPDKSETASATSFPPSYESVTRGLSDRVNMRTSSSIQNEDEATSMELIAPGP
Assay: Compound profiling on NaV1.8, human NaV1.8 cell line, SyncroPatch384PE automated patch clamp assay (Example 102, first set of compounds, Table 16)
Assay type: cell-based
Conditions: resting state block (P1 measurement), human NaV1.8 HEK cells, Table 16 (first set of compounds), read-out: P1IC50
pIC50: −log10 of the molar value.
result.type: pIC50

Worked examples, 10 compounds total:
INSERT INTO assay_data (compound, assay_value) VALUES
  ('Cc1nc(F)ccc1Oc1ncc(C(F)(F)F)cc1C(=O)Nc1cccc(S(C)(=N)=O)c1 (stereo not drawn)', '6.70 to 7.40'),
  ('COc1cc(C#N)ccc1Oc1nnc(C(F)(F)F)c(C)c1C(=O)Nc1cccc(C(=O)NC2CCCC2C(N)=O)c1 (stereo not drawn)', '6.30 to 6.70'),
  ('Cc1cc(F)ccc1Oc1nnc(C(F)(F)F)c(-c2ccccc2)c1C(=O)Nc1cccc([S@@](C)(=N)=O)c1', '6.30 to 6.70'),
  ('CC(C)Oc1ccc(Oc2ncc(C(F)(F)F)cc2C(=O)Nc2cccc(C(N)=O)c2)c(F)c1', '6.30 to 6.70'),
  ('COc1ccc(Oc2ncc(C(F)(F)F)cc2C(=O)Nc2cccc(S(C)(=N)=O)c2)cc1F (stereo not drawn)', '6.30 to 6.70'),
  ('Cc1cc(F)ccc1Oc1nnc(C(F)(F)F)c(C)c1C(=O)Nc1cccc(C(N)=O)c1', '6.70 to 7.40'),
  ('COc1cc(C)c(Oc2ncc(C(F)(F)F)cc2C(=O)Nc2cccc(S(C)(=N)=O)c2)cc1C#N (stereo not drawn)', '6.30 to 6.70'),
  ('CNCC(=O)N=[S@](C)(=O)c1cccc(NC(=O)c2cc(C(F)(F)F)cnc2Oc2ccc(F)cc2C)c1', '≥ 7.70'),
  ('COc1cc(C#N)ccc1Oc1nnc(C(F)(F)F)c(C)c1C(=O)Nc1cccc(S(C)(=O)=O)c1', '≥ 7.70'),
  ('CC(=O)N=[S@](C)(=O)c1cccc(NC(=O)c2cc(C(F)(F)F)cnc2Oc2ccc(F)cc2C)c1', '≥ 7.70');

Give me pIC50 for each of these compounds, listed below.
1. COc1ccc(Oc2nnc(C(F)(F)F)c(C)c2C(=O)Nc2cccc(S(C)(=O)=O)c2)c(C)c1F
2. CS(=N)(=O)c1cccc(NC(=O)c2cc(C(F)(F)F)cnc2OC2CC(C#N)C2)c1 (stereo not drawn)
3. COc1cc(C#N)ccc1Oc1nnc(C(F)(F)F)c(C)c1C(=O)Nc1ccc(OC)c(C(N)=O)c1

// result
1. ≥ 7.70
2. 6.30 to 6.70
3. 6.30 to 6.70

Give pIC50 for each listed item.
1. COc1cc(C#N)ccc1Oc1ncc(C(F)(F)F)cc1C(=O)NC12CC(C(N)=O)(C1)C2
2. Cc1cc(C#N)ncc1Oc1ncc(C(F)(F)F)cc1C(=O)Nc1cccc(S(C)(=O)=O)c1

// result
1: 6.30 to 6.70; 2: 6.30 to 6.70
